Values were extracted from the nanobody polyreactivity screen of Harvey et al. (2022).

Test: yeast display, Sf9 membrane polyspecificity reagent, FACS + sequencing; frameworks hold sequencing errors
quantity-measured: polyreactivity (PSR sort gate)

QVQLVESGGGLVQAGGSLRISCAASGSIFRNYAMGWYRQAPGKERELVAAISRNGGTTYYADSVKGRFTISRDNAKNTVYLQMNSLKPEDTAVYYCARLYYTQKDSKTGYGYWGQGTQVTVSS = high polyreactivity
QVQLVESGGGLVQAGGSLRLSCAASGFIFRGYAMGWYRQAPGKERELVAAISRRGGSTYYADSVKGRFTISRHNAKNTVYLLMNSLKPEDTAVYYCNADTTQQGNVRVGYWGQGTQVTVSS = high polyreactivity

---

Test: yeast display, Sf9 membrane polyspecificity reagent, FACS + sequencing; frameworks hold sequencing errors
quantity-measured: polyreactivity (PSR sort gate)

QVQLVESGGGLVQAGGSLRLSCAASGRIFYRNAMGWYRQAPGKERELVASITSGGRTNYADSVKGRFTISRDNAKNTVYLQMNSLKPEDTAVYYCAAPPPYSVRTFRFYYWGQGTQVTVSS = high polyreactivity
QVQLVESGGGLVQAGGSLRLSSAASGRIFYLYAMGWYRQAPVKERELVAGITSGGRTNYADSVKGRFTISRDNAKNTFFLQMNSLKPEDTAVYYCAAYYWGLYSGYYWRQGTQVTVSS = high polyreactivity
QVQLVESGGGLVQAGGSLRLSCAASGYIFDRYAMGWYRQAPGKERELVAAISGRGGSTYYADSVKGRFTISRDNAKNTVYLQMNSLKPEDTAVYYCARDVYVRIGQRARYDSWGQGTQVTVSS = high polyreactivity
QVQLVESGGGLVQAGGSLRLSCAASGSNFYFYAMGWYRQAPGKERELVAGITSSGASTYADSVKGRFTISRDNEKNTVYLQMNSLKPEDTAVYYCAAYYPLRKGYGYWGQGTQVTVSS = high polyreactivity
QVQLVESGGGLVQALGSLRLSCVASGSTYDAYDMGWYREAPGKERELVAAITSGGSTYYADSVKGRFTISRDNAKNTVYLQMNSLKPEDTAVYYCAASNQWSSTYLTYGFYYWGQGTQVTVSS = low polyreactivity
QVQLVESGGGLVQAGGSLRLSCAASGRTFKKYAMGWYRQAPGKEREMVAAITGSGGSTYYADSVKRRFTISRDNAKNTVYLQMNSLKPEDTAVYYCAAYAYGVWHSQDGGNYWGQGTQVTVSS = low polyreactivity

Measured polyreactivity (PSR sort gate), `QVQLVESGGGLVQAGGSLRISCAASGSSFHDYAMGWYTQAPGKERELVAAISSSGTSTYYADSVKGRFTISRDNANNTVYLQMNILKPEDTAVYYCAVYAISFAWSGWTYEDYWGQGTQVNVSS` : low polyreactivity

Measured polyreactivity (PSR sort gate), `QVQLVESGGGLVQAGGSLRLSCAASGSIFLRNAMGWYRQAPGKERELVASITWNGASTSYADSVKGRFTISRDNAKNTVYLQMNSLKPEDTAVYYCAAVTVQDSNLKYGYWGQGTQLTVSS` : low polyreactivity

Measured polyreactivity (PSR sort gate), `QVQLVESGGGLVQAGGSLRLSCAASGRTLPPNAMGWYRQAPGKERELVAGITWSGGSTYYADSVKGRFTISRDNAKNTVYLQMNSLKPEDTAVYYCAASRSFPGYGLYYYWGQGTQVTVSS` : low polyreactivity

Measured polyreactivity (PSR sort gate), `QVQLVESGGGLVQAGGSLRLSCAASGRTFWNYAMGWYRQAPGKERELVAVIRFSDGSTYYADSVKGRFTISRDNAKNTGYLQMISLKPEDTAVFYCAAKGPRRWGSGFDYWGQGTQVTVSS` : low polyreactivity

Measured polyreactivity (PSR sort gate), `QVQLVESGGGLVQGGGSLRLSCAASGLILRKYAMGWYRQAPGKEREFVAAITQTGSRTYYADSVKGRFTISRDNAKNTVYLQMNSLKPEDTAVYYCNAVNYRSSRDSGYWGQGTQVTVSS` : high polyreactivity

Measured polyreactivity (PSR sort gate), `QVQLVESGGGLVQAGGSLRLSCAASGSILTENAMGWYRQAPGKERELVAAISRSGGRTYYADSVKGRFTISRDNAKNTVYLQMNSLKPEDTAVYYCAAEYWTVGYYYSLESDYWGQGTQVTVSS` : low polyreactivity

Measured polyreactivity (PSR sort gate), `QVQLVESVGGLVQAGGSLRLRCAASGSTFYKNAMGRYRQAPGIERELVAGISRRGGRTYYADSVKGRFTISRDNAKNTVYLQMNSLKPEDTAVFYCNTGHEVDEYDYWGQGTQVTVSS` : low polyreactivity

Measured polyreactivity (PSR sort gate), `QVHLVESGGGLVQAGGSLRLSCAASGGTFYYNTMGWYRQAPGKERELVAAITSGTSTNYADSVKGRFTISRDNAKNTVYLQMNSLIPEDTAGYYCAADPDADDPRRGYDYWGQGTQVTVSS` : low polyreactivity

Measured polyreactivity (PSR sort gate), `QVQLVESGGGLVQAGGSLRLSSAASGLTFLGYTMGWYRQAPGKARELVAAINYSGGSTYYADSVKGSFTISRDNAKNTVYLQMNSLKPEDPAVYYCAARRAVSGGVRMYYWGQGTQVTVSS` : high polyreactivity

---

Experiment: yeast display, Sf9 membrane polyspecificity reagent, FACS + sequencing; frameworks hold sequencing errors
quantity-measured: polyreactivity (PSR sort gate)

# count of solved cases: 6
QVQLVESGGGLVQAGGSLRLSCAASGLTFGPNALGWYRQAPGQERELVAAITTGGGTNYADSVKGRFTISRDNAKNTVYLQMNSLKPEDTAVYYCAADALDSPDGYDYCGQGTQVTVSS = low polyreactivity
QVQLVESGGGLVQAGGSLRLSCAASGFIFYYYAMGWYRQAPGKERELVATITSGGGTYYADSVKGRFTISRDNAKNTVYVQMISLKPEDTAVYYCAKRDLEQSAFLGYDYWGQGTQVTVSS = low polyreactivity
QVPLVESGGGLVQAGGSLRLSCSASGIIFNAYTMGWYRQAPGKESELVAAITTAGSTHYADSVKGRFTISRDNAKNTVYLQMNSLKPEDTAVYYCNADTPVGKYAHLACYQDYDDWGQGTQVTVSS = low polyreactivity
QVQLVESGGGLVQAGGSLRLSCAASGSIFDGNAMGWYRKATGKERELVAAITNSGGSTYYADSVNGRFTISPENAMNSVYLQKNSLKPEDTAVYYCNALPFAWRRYRWLRTMYYWGQGTQVTVSS = low polyreactivity
QVQLVESGGGLVQAGGSLRLSCAASGSTFTYYAMGWYRQAPGKERELVASISSTTGSTYYADSVKGRFTISRDNAKNTVYLQMNSLKPEDTAVYYCAAERVYPWYRYYYWGQGTQVTVSS = low polyreactivity
QVQLVESGGGLVQAGGSLRLSRAASGSTLSLYAMGWYRQAPGKERELVAAITSSGGTYYADSVKGRFTISRDNAKNTVYLQMNSLKPEDTAVYYCAADPRSYFTSEYWGQGTQVTVSS = high polyreactivity

--- query ---
Measured polyreactivity (PSR sort gate), `QVQLVESGGGLVQAGCSLRLSCAASGSISSFYAMGWYRQAPGKERELVAGITSGGSTNYADSVKGRFTISRDNAKNTVYLQMNSLKPEDTAVYYCAAVYKGAGTHFDVFVKEFDYWGLGTQVTVSS` : low polyreactivity

---

Assay: yeast display, Sf9 membrane polyspecificity reagent, FACS + sequencing; frameworks hold sequencing errors
quantity-measured: polyreactivity (PSR sort gate)

# count of solved cases: 8
QVQLVESGGGLVQAGGSLRLSCAASGFTFGRYAMGWYRPAPGKERELVAAISRSGGRTYYADTVKGRFTISRDNAKNTVYLQMNSLKPEHTAVYYCAAYGGVEDDYWGQGTQVTVSS = low polyreactivity
QVQLVESGGGLVQAGGSLRLSCAASGRTFRTNAIGWYRQATGKERELVAAIRASTGSTYYADSVKGRFTISRDNAKNSVYLQMNSLKPEDTAFYYCAARLRRGLTATWYYYWGQGTQVTVSS = high polyreactivity
QVQLVESGGGLVQAGGSLRLSCAASGLSFPLNAMGWYRPAPGKERQLVAAITYSGGGTYYADSVKGRFTISRDTAKNTGYLQMNSLKTEDTAVYYCAADGSVSYYTYYYWGQGTQVTVSS = low polyreactivity
QVQLVESGGGLVQAGGSLRLSCAASGRIFRVYAMGWYRQAPGKERELVASISSGGSTNYADSVKGRFTISRENAKNTVYLQMNSLKPEDTAVYYCAADYWYRLFWYYGAPLDYWGQGTQVTVSS = low polyreactivity
QFQIVESGGGLVQAGGSLRLSCAASGYTFTGNAMGWYRQATGKEREFVAGITWRTGRTYYADSVKGRFTISRDNAKNSVYVLMNSLKPEDTAVYYCNKDHQRRYFWSYDYWGQGTLVTVSS = low polyreactivity
QVQLVESGGGLVQAGGSLRLSCAASGFTFFRYAMGWYRQAPGKERELVAAISYSGGNTYYADSVKGRFTISRDNAKNTVYLQMNSLKPEDTAVYYCNAVHFWKYDYWGQGTQVTVSS = high polyreactivity
QVQLVESAGGLVQAGGSLRLSCAASGRIFSRYAMGWYRQAPGKERELVAAITQSGTSTYYADSVKGRFTISRDNAKNTVYLQMNSLKPEDTAVYYCNAYRQYRYDYWGQGTQVTVSS = low polyreactivity
QVQLVESGGGLVQAGGSLRLTCAASGYTFGKYAMGWYREAPGKERELVATIRSGGSTNYADSLKGRFTISRDNAKNTVYLQMNSLKPEDTAVYYCNKRYRYEYGYDYWGQGTLVTVSS = high polyreactivity

Measured polyreactivity (PSR sort gate), `QLQLVESGGVLVQAGGSLRLSCAASGSTFRYNAMGWYRQAPGKERELVASITWSGGDTYYADSVKGRFTISRDNAKNTVYLQMNSLKPEDTAVYYCAKKGYASRYFIYDYWGQGTQVTVSS` : low polyreactivity

Measured polyreactivity (PSR sort gate), `QVQLVESGGGLVQAGGSLRLSCAASGRTFQYNAMGWYRQAPGKEREFVAGITSIGGRTYYADSVKGRFTISRDNAKNTVYLQMNSLKPEETAVYYCAAVRGLAVGYDYWGQGTQVTVSS` : high polyreactivity

Measured polyreactivity (PSR sort gate), `QVQLVESGGGLVQAGGSLRLSCAASGLIFYGYVMGWYRQAPGKERELVAGISRNSGSTYYADSVKGRFTISRDNAKITVYLQMKSLKPEDTAVYYCDALKFEAWAGEDYWGQGTQLTVSS` : low polyreactivity
